# Test system: HepG2
# Protocol details: Cytotoxicity against human HepG2 cells after 48 hrs by WST-8 assay
# Assay type: cell-based
# Condition parameters: hepg2, 48 h

Compound	Activity
CCCCCCOc1ccc(-c2ccc([C@H](NC(=O)[C@@H](NC(=O)N[C@H](C(=O)O)C(C)C)[C@@H]3CCNC(=N)N3)C(=O)NCCCN[C@H](C(=O)O)[C@H](O[C@@H]3O[C@H](CN)[C@@H](O)[C@H]3O)C3O[C@@H](n4ccc(=O)[nH]c4=O)[C@H](O)[C@@H]3O)cc2)cc1 (single isomer, unassigned)	Non-toxic
CCCCOc1ccc(-c2ccc(CC[C@H](NC(=O)[C@@H](NC(=O)N[C@H](C(=O)O)C(C)C)[C@@H]3CCNC(=N)N3)C(=O)NCCCN[C@H](C(=O)O)[C@H](O[C@@H]3O[C@H](CN)[C@@H](O)[C@H]3O)C3O[C@@H](n4ccc(=O)[nH]c4=O)[C@H](O)[C@@H]3O)cc2)cc1 (single isomer, unassigned)	Non-toxic
CC(C)[C@H](NC(=O)N[C@H](C(=O)N[C@H](CCCCCCCc1ccc(-c2ccccc2)cc1)C(=O)NCCCN[C@H](C(=O)O)[C@H](O[C@@H]1O[C@H](CN)[C@@H](O)[C@H]1O)C1O[C@@H](n2ccc(=O)[nH]c2=O)[C@H](O)[C@@H]1O)[C@@H]1CCNC(=N)N1)C(=O)O (single isomer, unassigned)	Non-toxic
